TARGET_OR_TEST_SYSTEM: mTAAR7f (Mus musculus)
Construct: full length; N-terminal signal peptide, twin-strep and SNAP-tag, C-terminal nanoluc; BRET partner NES-Venus-mini-Gs (reporter)
Sequence (Q5QD08 whole entry): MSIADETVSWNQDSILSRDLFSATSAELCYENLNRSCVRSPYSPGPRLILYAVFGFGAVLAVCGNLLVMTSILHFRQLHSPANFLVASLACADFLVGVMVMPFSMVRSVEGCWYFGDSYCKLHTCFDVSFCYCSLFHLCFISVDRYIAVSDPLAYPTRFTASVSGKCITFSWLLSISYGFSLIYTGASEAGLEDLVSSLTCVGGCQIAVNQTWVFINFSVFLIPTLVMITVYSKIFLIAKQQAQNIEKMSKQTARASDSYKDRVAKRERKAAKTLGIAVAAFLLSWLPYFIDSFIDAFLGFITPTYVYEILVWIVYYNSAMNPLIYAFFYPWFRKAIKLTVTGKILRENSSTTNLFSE
EXPERIMENTAL_DETAILS: BRET mini-Gs recruitment (nanoluc receptor, NES-Venus-mGs), concentration-response

ENTRY_SMILES	TARGET_OR_TEST_SYSTEM	UNIT_TEXT	EC50
CN(C)C1CCCCC1	mTAAR7f (Mus musculus)	µM	8.51
